- Tested on: Caco-2 cell monolayer
- measurement description: Caco-2 monolayer transport (bioavailability) study, AB and BA directions
- Type: in vitro ADME, Homo sapiens
- assay conditions: AB experiment, donor side, S1 (15 mg/mL GSE), 75 min
Marks after values point to notes of the source that are not given here.
experimental endpoint: Apical Side 75 min

[in] Requested field: Apical Side 75 min. Item: O=C(O)c1cc(O)c(O)c(O)c1
[out] 5.0 ± 0.5 ^b mg/L

[in] Requested field: Apical Side 75 min. Item: O=c1c(OC2O[C@H](CO)[C@H](O)[C@H](O)[C@H]2O)c(-c2ccc(O)cc2)oc2cc(O)cc(O)c12 (stereo partly drawn) [K3Gal, kaempferol-3-galactoside]
[out] 0.52 ± 0.02 ^b mg/L

Further cases:
[in] Requested field: Apical Side 75 min. Item: O=c1c(O[C@@H]2O[C@H](CO)[C@@H](O)[C@H](O)[C@H]2O)c(-c2ccc(O)cc2)oc2cc(O)cc(O)c12 [K3G, kaempferol-3-glucoside]
[out] 7.1 ± 0.2 ^b mg/L

[in] Requested field: Apical Side 75 min. Item: O=C(/C=C/c1ccc(O)c(O)c1)O[C@@H](C(=O)O)[C@@H](O)C(=O)O
[out] 0.84 ± 0.07 ^b mg/L

[in] Requested field: Apical Side 75 min. Item: OC[C@H]1O[C@@H](Oc2cc3c(O)cc(O)cc3[o+]c2-c2cc(O)c(O)c(O)c2)[C@H](O)[C@@H](O)[C@@H]1O [D3G, delphinidin-3-O-glucoside]
[out] 1.9 ± 0.2 ^a,b mg/L

[in] Requested field: Apical Side 75 min. Item: O=c1c(O[C@@H]2O[C@H](CO)[C@@H](O)[C@H](O)[C@H]2O)c(-c2ccc(O)c(O)c2)oc2cc(O)cc(O)c12 [Q3G, quercetin-3-glucoside]
[out] 0.18 ± 0.01 ^b mg/L

[in] Requested field: Apical Side 75 min. Item: COc1cc(-c2[o+]c3cc(O)cc(O)c3cc2O[C@@H]2O[C@H](CO)[C@@H](O)[C@H](O)[C@H]2O)cc(OC)c1O [M3G, malvidin-3-O-glucoside]
[out] 4.5 ± 0.2 ^b mg/L

[in] Requested field: Apical Side 75 min. Item: COc1cc(C(=O)O)cc(OC)c1O
[out] 0.54 ± 0.03 ^b mg/L

[in] Requested field: Apical Side 75 min. Item: COc1cc(-c2[o+]c3cc(O)cc(O)c3cc2O[C@@H]2O[C@H](CO)[C@@H](O)[C@H](O)[C@H]2O)cc(O)c1O [Pet3G, petunidin-3-O-glucoside]
[out] 1.4 ± 0.1 ^b mg/L

meta.source: paper PMC12248599
